- ASSAYED_SYSTEM: horseradish peroxidase (HRP) tagged delF508-CFTR (Homo sapiens, UniProt P13569, DEL508-508)
- Construct: expressed in transfected cells
- Sequence (P13569 with tags, fused parts or gaps DEL508-508): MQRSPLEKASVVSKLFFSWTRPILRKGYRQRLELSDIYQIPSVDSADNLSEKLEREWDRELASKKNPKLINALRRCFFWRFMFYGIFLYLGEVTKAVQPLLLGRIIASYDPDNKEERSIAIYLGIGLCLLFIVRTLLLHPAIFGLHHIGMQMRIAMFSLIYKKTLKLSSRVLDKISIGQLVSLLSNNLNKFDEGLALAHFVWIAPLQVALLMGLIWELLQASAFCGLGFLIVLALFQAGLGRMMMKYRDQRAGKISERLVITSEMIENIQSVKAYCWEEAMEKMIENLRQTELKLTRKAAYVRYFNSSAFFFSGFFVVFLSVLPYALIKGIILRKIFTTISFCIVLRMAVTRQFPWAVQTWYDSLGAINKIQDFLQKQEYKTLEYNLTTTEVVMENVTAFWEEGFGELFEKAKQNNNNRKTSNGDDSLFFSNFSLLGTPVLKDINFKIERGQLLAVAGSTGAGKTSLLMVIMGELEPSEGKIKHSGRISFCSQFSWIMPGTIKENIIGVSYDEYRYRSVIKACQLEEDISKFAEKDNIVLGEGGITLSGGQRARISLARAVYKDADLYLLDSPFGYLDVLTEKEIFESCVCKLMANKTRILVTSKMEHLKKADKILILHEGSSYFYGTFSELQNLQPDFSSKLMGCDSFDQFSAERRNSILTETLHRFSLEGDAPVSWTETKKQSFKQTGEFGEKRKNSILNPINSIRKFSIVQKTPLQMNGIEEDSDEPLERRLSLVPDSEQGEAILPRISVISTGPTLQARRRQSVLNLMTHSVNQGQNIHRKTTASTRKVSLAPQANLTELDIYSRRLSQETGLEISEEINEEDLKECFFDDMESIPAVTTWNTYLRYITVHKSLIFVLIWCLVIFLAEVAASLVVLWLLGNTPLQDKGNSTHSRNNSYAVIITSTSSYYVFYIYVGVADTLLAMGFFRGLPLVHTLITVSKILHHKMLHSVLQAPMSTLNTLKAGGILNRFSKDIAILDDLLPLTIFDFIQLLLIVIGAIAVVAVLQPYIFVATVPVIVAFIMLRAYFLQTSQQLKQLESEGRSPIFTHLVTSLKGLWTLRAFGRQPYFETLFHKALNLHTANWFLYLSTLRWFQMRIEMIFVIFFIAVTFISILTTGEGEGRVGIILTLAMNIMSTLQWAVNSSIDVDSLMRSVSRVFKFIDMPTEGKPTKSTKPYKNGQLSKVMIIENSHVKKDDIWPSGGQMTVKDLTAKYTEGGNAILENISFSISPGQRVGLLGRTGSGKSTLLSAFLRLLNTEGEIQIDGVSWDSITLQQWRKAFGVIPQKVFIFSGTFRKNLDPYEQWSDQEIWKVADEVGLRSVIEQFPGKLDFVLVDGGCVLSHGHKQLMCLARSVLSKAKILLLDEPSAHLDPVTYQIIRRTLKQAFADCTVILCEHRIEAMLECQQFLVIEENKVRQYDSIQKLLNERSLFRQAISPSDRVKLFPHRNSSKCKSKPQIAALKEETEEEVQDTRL
- PROTOCOL: Measurement of delF508-CFTR-HRP surface expression in CFBE41o- cells
- Format: cell-based
- MEASUREMENT_SETUP: CFBE41o- cells; mean of at least two replicates; read-out: DelF508-CFTR-HRP EC50
PROPERTY: EC50 (µM)

INSERT INTO measurements (compound, property, recorded_value) VALUES
  ('COc1ccc(NS(=O)(=O)c2cccc(N3CCC[C@@](C)(C(=O)O)C3)n2)nc1-c1ccccc1C', 'EC50', 1.92),
  ('COc1ccc(Cl)cc1-c1nc(NS(=O)(=O)c2cccc(N3CCC(C)(C(=O)O)CC3)n2)ccc1C(F)(F)F', 'EC50', 2.32),
  ('CC1(C(=O)O)CCCN(c2cccc(S(=O)(=O)Nc3ccc(Cl)c(-c4ccccc4C4CC4)n3)n2)C1 (stereo not shown)', 'EC50', 1.73),
  ('COc1ccc(Cl)c(-c2nc(NS(=O)(=O)c3cccc(N4CCC[C@@](C)(C(=O)O)C4)n3)ccc2C(F)(F)F)c1', 'EC50', 2.02),
  ('CC(C)COc1ccccc1-c1nc(NS(=O)(=O)c2cccc(N3CCC(C)(C(=O)O)CC3)n2)ccc1Cl', 'EC50', 1.28),
  ('Cc1cccc(C)c1-c1nc(NS(=O)(=O)c2cccc(N3CCC[C@@](C)(C(=O)O)C3)n2)ccc1C(F)(F)F', 'EC50', 1.73),
  ('COc1ccc(Cl)cc1-c1nc(NS(=O)(=O)c2cccc(N3CCCC(C)(C(=O)O)C3)n2)ccc1C(F)(F)F (stereo not shown)', 'EC50', 1.92);

---

Measured EC50 by item
- ASSAYED_SYSTEM: horseradish peroxidase (HRP) tagged delF508-CFTR (Homo sapiens, UniProt P13569, DEL508-508)
- Construct: expressed in transfected cells
- PROTOCOL: Measurement of delF508-CFTR-HRP surface expression in CFBE41o- cells
- Type: cell-based
- MEASUREMENT_SETUP: delF508-CFTR-HRP surface expression, CFBE41o- cells; read-out: DelF508-CFTR-HRP EC50
Counter-ions that a name gives are not always drawn.
PROPERTY: EC50 (µM)

INSERT INTO assay_data (molecule, recorded_value) VALUES
  ('Cc1ccccc1-c1nc(NS(=O)(=O)c2cccc(N3CCC(C)(N)CC3)n2)ccc1C(F)(F)F [Example 110, Hydrochloride]', 2.8),
  ('Nc1cccc(S(=O)(=O)Nc2ccc(C(F)(F)F)c(-c3ccc(F)cc3Cl)n2)n1 [Example 41]', 2.34),
  ('Cc1ccccc1-c1nc(NS(=O)(=O)c2cccc(N3CCN(C(=O)OC(C)(C)C)C[C@@H]3C(=O)O)n2)ccc1C(F)(F)F [Example 347]', 1.89),
  ('Cc1ccccc1-c1nc(NS(=O)(=O)c2cccc(N[C@@H]3COCC[C@@H]3O)n2)ccc1C(F)(F)F (racemic) [Example 280]', 1.96),
  ('Cc1c(F)cccc1-c1nc(NS(=O)(=O)c2cccc(N3CCN(C4CC4)CC3)n2)ccc1C(F)(F)F [Example 144]', 1.88),
  ('N#Cc1ccccc1-c1nc(NS(=O)(=O)c2cccc(N)n2)ccc1Cl [Example 90]', 3.78),
  ('Cc1cccc(C)c1-c1nc(NS(=O)(=O)c2cccc(N[C@H]3C[C@@H](O)C3)n2)ccc1Cl [Example 286]', 1.49),
  ('Cc1ccc(F)cc1-c1nc(NS(=O)(=O)c2cccc(N3CCN4C[C@@H](F)CC4[C@@H]3C)n2)ccc1Cl (stereo partly shown) [Example 135]', 3.44),
  ('Cc1ccccc1-c1nc(NS(=O)(=O)c2cccc(NC3CCNCC3)n2)ccc1C(F)(F)F [Example 112, Hydrochloride]', 4.05),
  ('Cc1cccc(C)c1-c1nc(NS(=O)(=O)c2cccc(N)n2)cc(C(F)(F)F)c1Cl [Example 8]', 1.36);

---

- ASSAYED_SYSTEM: horseradish peroxidase (HRP) tagged delF508-CFTR (Homo sapiens, UniProt P13569, DEL508-508)
- Construct: expressed in transfected cells
- PROTOCOL: Measurement of delF508-CFTR-HRP surface expression in CFBE41o- cells
- Assay type: cell-based
- MEASUREMENT_SETUP: delF508-CFTR-HRP surface expression, CFBE41o- cells; read-out: DelF508-CFTR-HRP EC50
Where a name gives a salt, the structure may show the parent alone.
PROPERTY: EC50 (nM)

INSERT INTO results (compound, result_unit, recorded_value) VALUES
  ('CO[C@@H]1CNCC[C@H]1Nc1cccc(S(=O)(=O)Nc2ccc(C(F)(F)F)c(-c3ccccc3C)n2)n1 (racemic) [Example 116, Hydrochloride]', 'nM', 3160),
  ('Cc1ccccc1-c1nc(NS(=O)(=O)c2cccc(N3CCNC[C@@H]3C(=O)O)n2)ccc1C(F)(F)F', 'nM', 2800),
  ('Cc1ccccc1-c1nc(NS(=O)(=O)c2cccc(N3CC[C@@H](C(=O)O)C3)n2)ccc1C(F)(F)F', 'nM', 1640),
  ('Cc1cc(NS(=O)(=O)c2cccc(N)n2)nc(-c2c(C)cccc2C)c1', 'nM', 2690),
  ('COC(=O)C1(NC(=O)OC(C)(C)C)CCN(c2cccc(S(=O)(=O)Nc3ccc(Cl)c(-c4c(C)cccc4C)n3)n2)CC1', 'nM', 1260),
  ('Cc1cccc(C)c1-c1nc(NS(=O)(=O)c2cccc(N3CC(O)(C4CC4)C3)n2)ccc1Cl', 'nM', 1760),
  ('Cc1ccc(F)cc1-c1nc(NS(=O)(=O)c2cccc(N3CC(C)(O)C3)n2)ccc1C(F)(F)F', 'nM', 1600),
  ('Cc1cccc(C)c1-c1nc(NS(=O)(=O)c2cccc(N3CC(O)C3)n2)ccc1Cl', 'nM', 1160);

---

Catalogue of EC50 readings, one per entry.
- ASSAYED_SYSTEM: horseradish peroxidase (HRP) tagged delF508-CFTR (Homo sapiens, UniProt P13569, DEL508-508)
- Construct: expressed in transfected cells
- PROTOCOL: Measurement of delF508-CFTR-HRP surface expression in CFBE41o- cells
- Assay type: cell-based
- MEASUREMENT_SETUP: CFBE41o- cells; mean of at least two replicates; read-out: DelF508-CFTR-HRP EC50
PROPERTY: EC50

INSERT INTO measurements (molecule, recorded_value) VALUES
  ('Cc1ccccc1-c1nc(NS(=O)(=O)c2cccc(N3CCC[C@@H]4[C@@H](C(=O)O)C[C@@H]43)n2)ccc1C(F)(F)F (racemic)', '1750 nM'),
  ('CC1(C(=O)O)CCN(c2cccc(S(=O)(=O)Nc3ccc(C(F)(F)F)c(-c4ccccc4C4CCCC4)n3)n2)CC1', '1080 nM'),
  ('Cc1ccccc1-c1nc(NS(=O)(=O)c2cccc(N3CCC[C@](C)(C(=O)O)C3)n2)ccc1C(F)(F)F', '1680 nM'),
  ('O=C(O)C1CC12CCN(c1cccc(S(=O)(=O)Nc3ccc(C(F)(F)F)c(-c4ccccc4C4CC4)n3)n1)C2 (centres unmarked)', '1920 nM'),
  ('Cc1ccc(F)cc1-c1nc(NS(=O)(=O)c2cccc(N3CCC[C@@](C)(C(=O)O)C3)n2)ccc1C(F)(F)F', '1900 nM');

---

- ASSAYED_SYSTEM: horseradish peroxidase (HRP) tagged delF508-CFTR (Homo sapiens, UniProt P13569, DEL508-508)
- Construct: expressed in transfected cells
- PROTOCOL: Measurement of delF508-CFTR-HRP surface expression in CFBE41o- cells
- Assay type: cell-based
- MEASUREMENT_SETUP: delF508-CFTR-HRP surface expression, CFBE41o- cells; read-out: DelF508-CFTR-HRP EC50
pEC50: −log10 of the molar value.
Listed molecules paired with reported pEC50
PROPERTY: pEC50

INSERT INTO assay_data (molecule, recorded_value) VALUES
  ('Cc1ccccc1-c1nc(NS(=O)(=O)c2cccc(N3CCNC(=O)C3)n2)ccc1C(F)(F)F', 5.47),
  ('Nc1cccc(S(=O)(=O)Nc2ccc(Cl)c(-c3ccc(F)cc3Cl)n2)n1', 5.59),
  ('Cc1ccc(F)cc1-c1nc(NS(=O)(=O)c2cccc(N3CCC(C(=O)O)C3)n2)ccc1C(F)(F)F (stereo not drawn)', 5.49);

---

- ASSAYED_SYSTEM: delF508-CFTR (Homo sapiens, UniProt P13569, DEL508-508)
- Construct: functional activity of the CFTR channel (Chloride ion transport) in patient derived primary human bronchial epithelial cells
- Sequence (P13569 with tags, fused parts or gaps DEL508-508): as above
- PROTOCOL: Measurement of delF508-CFTR functional activity in primary human bronchial epithelial cells (HBECs) using Multi-Transepithelial Clamp Circuit (MTECC-24) assay
- MEASUREMENT_SETUP: primary CF HBECs; test compound added 24h before assay, in the presence of potentiator; mean of at least two replicates; read-out: MTECC24 CFHBEC- EC50
pEC50: −log10 of the molar value. Structures can show the parent of a compound that is named as a salt.
PROPERTY: pEC50

INSERT INTO measurements (compound, property, recorded_value) VALUES
  ('Cc1ccc(F)cc1-c1nc(NS(=O)(=O)c2cccc(N)n2)ccc1C(F)(F)F [Example 1]', 'pEC50', 8.40),
  ('Cc1ccccc1-c1nc(NS(=O)(=O)c2cccc(N3C4CCCC3CC(C(=O)O)C4)n2)ccc1C(F)(F)F (stereo not shown) [Example 345]', 'pEC50', 7.38),
  ('Cc1c(-c2nc(NS(=O)(=O)c3cccc(N)n3)ccc2Cl)cccc1C(F)(F)F [Example 34]', 'pEC50', 7.94),
  ('CCOC(=O)C1(C)CCN(c2cccc(S(=O)(=O)Nc3ccc(Cl)c(-c4c(C)cccc4C)n3)n2)CC1 [Example 249]', 'pEC50', 8.17),
  ('Cc1ccccc1-c1nc(NS(=O)(=O)c2cccc(NC3CCNCC3)n2)ccc1C(F)(F)F [Example 112, Hydrochloride]', 'pEC50', 6.31),
  ('Cc1ccc(F)cc1-c1nc(NS(=O)(=O)c2cccc(N3CCNCC3)n2)ccc1Cl [Example 193, hydrochloride]', 'pEC50', 6.75),
  ('Cc1ccccc1-c1nc(NS(=O)(=O)c2cccc(O[C@@H]3COC[C@@H]3O)n2)ccc1C(F)(F)F (racemic) [Example 291]', 'pEC50', 7.88),
  ('Cc1ccc(F)cc1-c1nc(NS(=O)(=O)c2cccc(N3CC(O)C3)n2)ccc1C(F)(F)F [Example 220]', 'pEC50', 8.49),
  ('Cc1c(F)cccc1-c1nc(NS(=O)(=O)c2cccc(N3CCN(C(C)(C)C)CC3)n2)ccc1Cl [Example 140]', 'pEC50', 7.53),
  ('Cc1ccccc1-c1nc(NS(=O)(=O)c2cccc(N3CCC(C(=O)O)CC3)n2)ccc1C(F)(F)F [Example 344]', 'pEC50', 7.64),
  ('Cc1ccccc1-c1nc(NS(=O)(=O)c2cccc(OC3CCC(C(=O)O)CC3)n2)ccc1C(F)(F)F (stereo not shown) [Example 342]', 'pEC50', 7.10),
  ('COc1ccc(Cl)c(-c2nc(NS(=O)(=O)c3cccc(N4CCNCC4)n3)ccc2Cl)c1 [Example 158, hydrochloride]', 'pEC50', 7.03),
  ('Cc1ccc(F)cc1-c1nc(NS(=O)(=O)c2cccc(N3CC(O)C3)n2)ccc1Cl [Example 234]', 'pEC50', 7.95);
